Hello, the source for this data is patent US8278319B2, in case you need it.

Molecular target: human B1R (Homo sapiens, UniProt P46663)
Construct: expressed in transfected cells; host or cells: CHO K1 cells
Sequence (P46663 whole entry): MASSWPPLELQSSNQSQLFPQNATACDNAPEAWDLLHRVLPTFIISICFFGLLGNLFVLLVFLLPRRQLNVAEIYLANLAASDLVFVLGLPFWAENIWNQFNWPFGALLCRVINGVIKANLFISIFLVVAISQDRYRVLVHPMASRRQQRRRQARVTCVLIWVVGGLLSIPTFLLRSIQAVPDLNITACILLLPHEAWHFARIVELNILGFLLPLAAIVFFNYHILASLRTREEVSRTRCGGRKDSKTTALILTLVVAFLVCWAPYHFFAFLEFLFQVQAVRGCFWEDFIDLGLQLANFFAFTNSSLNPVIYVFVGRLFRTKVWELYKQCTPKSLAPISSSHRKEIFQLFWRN
Experiment: Functional investigation on the bradykinin receptor 1 (B1R), FLIPR Ca2+ assay, hB1R cells
Assay type: cell-based
Conditions: % inhibition human B1R at 10 μM; CHO K1 cells transfected with human B1R; agonist Lys-Des-Arg9 bradykinin at EC80; read-out: % Inh. (hum. B1R) 10 μM
inhibition at 10 µM values for the molecules below.
Express it in %; write the number only.

Recorded inhibition at 10 µM, per entry:
Cc1cccc(Cl)c1S(=O)(=O)N1CCCCC1COCC(=O)N1CCC2(CC1)CCC(c1cccc(F)c1)(N1CCCC1)CC2 (stereo not shown) :: 100
CN(C)C1(c2cccs2)CCC2(CCN(C(=O)CC(NS(=O)(=O)c3ccc4ccccc4c3)c3ccccc3)CC2)CC1 (stereo not shown) :: 69
COc1cc(C)c(S(=O)(=O)N2CCCCC2CCCC(=O)N2CCC3(CC2)CCC(c2cccc(F)c2)(N2CCCC2)CC3)c(C)c1 (stereo not shown) :: 100
COc1cc(C)c(S(=O)(=O)N2CCCCC2COCC(=O)N2CCC3(CC2)CCC(c2cccc(F)c2)(N2CCCC2)CC3)c(C)c1 (stereo not shown) :: 100

Prompt: Consider the molecule CN(C)C1(c2cccs2)CCC2(CCN(C(=O)CC3CCCCN3S(=O)(=O)c3cccc(C(F)(F)F)c3)CC2)CC1 (stereo not shown) and give its recorded inhibition at 10 µM.
Completion: 84

Prompt: Let me know recorded inhibition at 10 µM for COc1cc(C)c(S(=O)(=O)N2CCCCC2CCCC(=O)N2CCC3(CC2)CCC(c2cccs2)(N(C)C)CC3)c(C)c1 (stereo not shown) , thanks.
Completion: 99

Prompt: Supply recorded inhibition at 10 µM for Cc1cccc(Cl)c1S(=O)(=O)N(CCOCC(=O)N1CCC2(CC1)CCC(c1cccc(F)c1)(N1CCCC1)CC2)C1CC1 here.
Completion: 100

Prompt: Quick one: give measured inhibition at 10 µM for COc1cc(C)c(S(=O)(=O)N2CCCC[C@H]2COCC(=O)N2CCC3(CC2)CCC(c2ccccc2)(N2CC(F)(F)C2)CC3)c(C)c1
Completion: 86

Prompt: Tell me inhibition at 10 µM reported for O=C(CC1CCCCN1S(=O)(=O)c1cccc(C(F)(F)F)c1)N1CCC2(CC1)CCC(c1cccc(F)c1)(N1CCCC1)CC2 (stereo not shown)
Completion: 73

---

Target: rat B1R (Rattus norvegicus)
Construct: expressed in transfected cells; host or cells: CHO K1 cells
Sequence (P97583 whole entry): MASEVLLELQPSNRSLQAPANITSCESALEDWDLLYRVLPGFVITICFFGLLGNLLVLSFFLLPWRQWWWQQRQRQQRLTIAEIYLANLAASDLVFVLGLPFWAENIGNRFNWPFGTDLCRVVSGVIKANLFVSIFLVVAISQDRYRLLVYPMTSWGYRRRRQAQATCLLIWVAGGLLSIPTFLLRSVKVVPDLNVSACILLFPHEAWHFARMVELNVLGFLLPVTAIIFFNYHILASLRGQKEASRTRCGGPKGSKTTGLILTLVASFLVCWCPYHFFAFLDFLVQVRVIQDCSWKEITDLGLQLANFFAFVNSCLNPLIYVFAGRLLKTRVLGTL
Test: Functional investigation on the bradykinin receptor 1 (B1R), FLIPR Ca2+ assay, rB1R cells
Type: cell-based
Details: % inhibition rat B1R at 10 μM; CHO K1 cells transfected with rat B1R; agonist Des-Arg9 bradykinin at EC80; read-out: % Inh. (rat B1R) 10 μM
Recorded Metric: inhibition at 10 µM (%)
# value in %; strip the unit string

CN(C)C1(c2ccccc2)CCC2(CCN(C(=O)CC3CCCCN3S(=O)(=O)c3cccc(C(F)(F)F)c3)CC2)CC1 (stereo not shown) :: 38
Cc1cc(S(=O)(=O)N2CCCCC2CCC(=O)N2CCC3(CC2)CCC(c2ccccc2)(N(C)C)CC3)c(C)cc1Cl (stereo not shown) :: 97
COc1cc(C)c(S(=O)(=O)N2C=CNC(=O)[C@H]2CC(=O)N2CCC3(CC2)CCC(c2ccccc2)(N(C)C)CC3)c(C)c1 :: 92
Cc1cccc(Cl)c1S(=O)(=O)N(CCOCC(=O)N1CCC2(CC1)CCC(c1cccs1)(N(C)C)CC2)C1CC1 :: 97
CN(C)C1(c2ccccc2)CCC2(CCN(C(=O)C[C@@H](NS(=O)(=O)c3ccc4ccccc4c3)c3ccccc3)CC2)CC1 :: 99

Prompt: Give the reported value of inhibition at 10 µM for this record: O=C(CC1CCCCN1S(=O)(=O)c1cccc(C(F)(F)F)c1)N1CCC2(CC1)CCC(c1cccc(F)c1)(N1CCCC1)CC2 (stereo not shown)
Completion: 75

Prompt: Fill in reported inhibition at 10 µM for this entry: CN(C)C1(c2cccs2)CCC2(CCN(C(=O)CC3CCCCN3S(=O)(=O)c3cccc(C(F)(F)F)c3)CC2)CC1 (stereo not shown)
Completion: 79
